Value source: paper PMC10820527

system: healthy male rats; assay: Acute oral toxicity assessment (OECD Guidelines No. 423); format: in vivo, rat; conditions: single per os dose 10 mg/kg, sacrifice after 14 days, (absolute organ weight × 100%)/body weight
Can you tell me Relative organ weight, Liver for the items I'm about to list?

Task: What measured Relative organ weight, Liver goes with `COc1ccc2cc([C@H](C)C(=O)NC(=S)Nc3ccccc3OC)ccc2c1` ?
Result: 2.83 ± 0.20

Task: Follow-up entry: `COC(=O)[C@H](Cc1ccccc1)NC(=S)NC(=O)[C@@H](C)c1ccc2cc(OC)ccc2c1`
Result: 3.09 ± 0.27

Task: Next entry: `COc1ccc2cc([C@H](C)C(=O)NC(=S)Nc3ccc(C)cc3)ccc2c1`
Result: 3.01 ± 0.27

Task: And `COc1ccc2cc([C@H](C)C(=O)NC(=S)Nc3ccccc3)ccc2c1` ?
Result: 2.65 ± 0.15

Task: // next record `COc1ccc2cc([C@H](C)C(=O)NC(=S)Nc3ccccc3F)ccc2c1`
Result: 2.76 ± 0.36

Task: Request: `COc1ccc2cc([C@H](C)C(=O)NC(=S)Nc3ccccc3C)ccc2c1`
Result: 2.67 ± 0.15

Task: Follow-up item: `COC(=O)[C@H](Cc1c[nH]c2ccccc12)NC(=S)NC(=O)[C@@H](C)c1ccc2cc(OC)ccc2c1`
Result: 2.03 ± 0.42

====

Tested on: carrageenan-induced rat paw edema
Assay: Carrageenan-induced rat paw edema model
Type: in vivo
Conditions: Rattus norvegicus; 10.0 mg/kg, 1 h
Experimental: The Carrageenan-induced rat paw edema model was used to assess the anti-inflammatory potential of novel compounds 8–14. […] In order to quantify the anti-inflammatory effects of the tested compounds, left paw thickness was measured at specific time points: prior to inflammation induction (moment 0) and 1, 2, 3, and 4 h (moments 1, 2, 3, and 4) following carrageenan injection. Tissue thickness was measured in the middle of the rat paw using a Digital Vernier caliper (Aerospace, China). […]
So basically: inhibition in vivo at 10 mg/kg at 20% or higher? That is label 1. Lower than 20%? That is label 0.

Task: Decide: is the reported value of inhibition in vivo at 10 mg/kg for `COc1ccc2cc([C@H](C)C(=O)NC(=S)Nc3ccccc3OC)ccc2c1` equal to or greater than 20%?
Result: label 0

Task: For `COc1ccc2cc([C@H](C)C(=O)NC(=S)Nc3ccc(C)cc3)ccc2c1` then?
Result: label 1

Task: Then what about the compound `COc1ccc2cc([C@H](C)C(=O)O)ccc2c1` ?
Result: label 1

Task: What do you have for `COC(=O)[C@H](Cc1c[nH]c2ccccc12)NC(=S)NC(=O)[C@@H](C)c1ccc2cc(OC)ccc2c1` ?
Result: label 0

Task: Try the compound `COc1ccc2cc([C@H](C)C(=O)NC(=S)Nc3ccccc3)ccc2c1`
Result: label 1

====

system: carrageenan-induced rat paw edema; test: Carrageenan-induced rat paw edema model; type: in vivo; settings: 2.5 mg/kg, 3 h after carrageenan; mean ± SD
MEASUREMENT_TYPE: Rat Paw Thickness
Please provide the amount together with its unit, number first.

Task: // Rat Paw Thickness lookup, key: COc1ccc2cc([C@H](C)C(=O)O)ccc2c1 [Naproxen, naproxen]
Result: 5.75 ± 0.20 mm

Task: Check COc1ccc2cc([C@H](C)C(=O)NC(=S)Nc3ccccc3)ccc2c1 [Compound 8] too.
Result: 5.07 ± 0.21 mm

Task: # repeat for COC(=O)[C@H](Cc1ccccc1)NC(=S)NC(=O)[C@@H](C)c1ccc2cc(OC)ccc2c1 [Compound 13]
Result: 6.13 ± 0.12 mm

Task: Would you mind doing COc1ccc2cc([C@H](C)C(=O)NC(=S)Nc3ccccc3OC)ccc2c1 [Compound 11] as well?
Result: 6.67 ± 0.80 mm

Task: Check COc1ccc2cc([C@H](C)C(=O)NC(=S)Nc3ccccc3F)ccc2c1 [Compound 12] too.
Result: 6.00 ± 0.30 mm

Task: COc1ccc2cc([C@H](C)C(=O)NC(=S)Nc3ccccc3C)ccc2c1 [Compound 10] , same question.
Result: 5.77 ± 0.85 mm

Task: One more compound: COC(=O)[C@H](Cc1c[nH]c2ccccc12)NC(=S)NC(=O)[C@@H](C)c1ccc2cc(OC)ccc2c1 [Compound 14]
Result: 5.90 ± 0.26 mm

Task: Also COc1ccc2cc([C@H](C)C(=O)NC(=S)Nc3ccc(C)cc3)ccc2c1 [Compound 9] ?
Result: 5.97 ± 0.06 mm
